Target protein (sequence): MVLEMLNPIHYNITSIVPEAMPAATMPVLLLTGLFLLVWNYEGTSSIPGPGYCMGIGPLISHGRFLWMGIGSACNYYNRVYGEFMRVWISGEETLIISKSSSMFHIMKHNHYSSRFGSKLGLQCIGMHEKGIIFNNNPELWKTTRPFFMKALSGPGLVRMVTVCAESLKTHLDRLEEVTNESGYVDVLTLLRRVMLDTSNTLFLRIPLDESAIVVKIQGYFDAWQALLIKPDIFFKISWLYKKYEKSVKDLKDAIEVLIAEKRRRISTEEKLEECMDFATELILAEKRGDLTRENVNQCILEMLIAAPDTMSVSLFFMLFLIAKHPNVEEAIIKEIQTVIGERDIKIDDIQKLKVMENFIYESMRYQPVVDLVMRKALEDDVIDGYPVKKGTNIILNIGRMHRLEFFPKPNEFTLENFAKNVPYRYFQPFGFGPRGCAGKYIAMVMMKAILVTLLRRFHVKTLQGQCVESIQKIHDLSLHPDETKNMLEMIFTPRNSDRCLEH
property.name: IC50 (nM)
State the answer as a number, implicitly in nM.

# IC50 lookup, item CC(=O)N1CCN(c2ccc(CO[C@H]3CO[C@](Cn4ccnc4)(c4ccc(Cl)cc4Cl)OC3)cc2)CC1 [drawing 112] 350

====

Recorded measurements of pIC50, one per entry
- tested.system: recombinant CYP-21 (Homo sapiens)
- Sequence (P08686 1-495): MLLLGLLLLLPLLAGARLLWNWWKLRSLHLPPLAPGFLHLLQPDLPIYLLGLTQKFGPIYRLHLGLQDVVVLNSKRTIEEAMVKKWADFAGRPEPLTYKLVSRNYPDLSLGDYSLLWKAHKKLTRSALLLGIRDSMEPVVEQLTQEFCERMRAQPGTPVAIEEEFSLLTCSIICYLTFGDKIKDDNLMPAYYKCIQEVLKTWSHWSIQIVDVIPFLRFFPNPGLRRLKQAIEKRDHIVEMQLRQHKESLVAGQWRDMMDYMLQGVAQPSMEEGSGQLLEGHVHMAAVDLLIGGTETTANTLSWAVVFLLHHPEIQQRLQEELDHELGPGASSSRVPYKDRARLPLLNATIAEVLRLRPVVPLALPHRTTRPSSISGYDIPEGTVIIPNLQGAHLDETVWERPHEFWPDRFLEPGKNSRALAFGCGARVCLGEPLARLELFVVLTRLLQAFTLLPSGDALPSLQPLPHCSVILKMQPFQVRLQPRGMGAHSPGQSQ
- test.summary: Cyp21 assay: AD293 cells over-expressing recombinant CYP-21, 11-deoxycortisol formation from 17α-OH Progesterone by LC/MS
# log scale: pIC50 equals minus log10 of the concentration in mol/L

Recorded results for 3 compounds are shown here.
• O=S(=O)(C1CC1)N1CCN(c2ccc(CO[C@H]3CO[C@](Cn4ccnc4)(c4ccc(Cl)cc4Cl)OC3)cc2)CC1 = 6.58
• CCOC(=O)CNC(=O)N1CCN(c2ccc(CO[C@H]3CO[C@](Cn4ccnc4)(c4ccccc4Cl)OC3)cc2)CC1 = 5.55
• CCS(=O)(=O)N1CCN(c2ccc(CO[C@H]3CO[C@](Cn4ccnc4)(c4ccc(Cl)cc4Cl)OC3)cc2)CC1 = 6.89

# pIC50 lookup, item O=S(=O)(c1c[nH]cn1)N1CCN(c2ccc(CO[C@H]3CO[C@](Cn4ccnc4)(c4ccc(Cl)cc4Cl)OC3)cc2)CC1 6.37

# pIC50 lookup, item Clc1ccc([C@]2(Cn3ccnc3)OC[C@@H](OCc3ccc(-c4ccncc4)cc3)CO2)c(Cl)c1 7.17

# pIC50 lookup, item O=S(=O)(c1cccc(OC(F)(F)F)c1)N1CCN(c2ccc(CO[C@H]3CO[C@](Cn4ccnc4)(c4ccc(Cl)cc4Cl)OC3)cc2)CC1 6.77

# pIC50 lookup, item O=S(=O)(CCCCl)N1CCN(c2ccc(CO[C@H]3CO[C@](Cn4ccnc4)(c4ccc(Cl)cc4Cl)OC3)cc2)CC1 5.96

# pIC50 lookup, item CC(=O)N1CCN(c2ccc(CO[C@H]3CO[C@](Cn4ccnc4)(c4ccccc4Cl)OC3)cc2)CC1 5.83

This collection of values is drawn from patent US20160244436A1.
